# System: MT4
# method_summary: In vitro inhibitory activity for cytopathicities induced by HIV-1III B against MT-4 cells.
# Type: functional, cell-based
# condition_notes: Homo sapiens
quantity_kind: IC50 (nM)
Write the number in nM without appending the unit.

Record `Cc1cn([C@H]2C[C@H](OP(=O)(O)OC[C@H]3O[C@@H](n4cnc5c(=O)[nH]c(N)nc54)C[C@@H]3OP(=O)(O)OC[C@H]3O[C@@H](n4cnc5c(=O)[nH]c(N)nc54)C[C@@H]3OP(=O)(O)OC[C@H]3O[C@@H](n4cnc5c(=O)[nH]c(N)nc54)C[C@@H]3OP(=O)(O)OC[C@H]3O[C@@H](n4cnc5c(N)ncnc54)C[C@@H]3OP(=O)(O)OC[C@H]3O[C@@H](n4cnc5c(=O)[nH]c(N)nc54)C[C@@H]3O)[C@@H](COC3(c4ccccc4)c4ccccc4Oc4ccccc43)O2)c(=O)[nH]c1=O` / MT4, IC50 recorded as 950

Case `Cc1cn([C@H]2C[C@H](OP(=O)(O)OC[C@H]3O[C@@H](n4cnc5c(=O)[nH]c(N)nc54)C[C@@H]3OP(=O)(O)OC[C@H]3O[C@@H](n4cnc5c(=O)[nH]c(N)nc54)C[C@@H]3OP(=O)(O)OC[C@H]3O[C@@H](n4cnc5c(=O)[nH]c(N)nc54)C[C@@H]3OP(=O)(O)OC[C@H]3O[C@@H](n4cnc5c(N)ncnc54)C[C@@H]3OP(=O)(O)OC[C@H]3O[C@@H](n4cnc5c(=O)[nH]c(N)nc54)C[C@@H]3O)[C@@H](COCc3cc(OCc4ccccc4)cc(OCc4ccccc4)c3)O2)c(=O)[nH]c1=O` , MT4, IC50 recorded as 490

Readout IC50 for `Cc1cn([C@H]2C[C@H](OP(=O)(O)OC[C@H]3O[C@@H](n4cnc5c(=O)[nH]c(N)nc54)C[C@@H]3OP(=O)(O)OC[C@H]3O[C@@H](n4cnc5c(=O)[nH]c(N)nc54)C[C@@H]3OP(=O)(O)OC[C@H]3O[C@@H](n4cnc5c(=O)[nH]c(N)nc54)C[C@@H]3OP(=O)(O)OC[C@H]3O[C@@H](n4cnc5c(N)ncnc54)C[C@@H]3OP(=O)(O)OC[C@H]3O[C@@H](n4cnc5c(=O)[nH]c(N)nc54)C[C@@H]3O)[C@@H](COCc3ccc4ccc5cccc6ccc3c4c56)O2)c(=O)[nH]c1=O` , test system MT4, was 1800

Note to self: IC50 of Cc1cn([C@H]2C[C@H](OP(=O)(O)OC[C@H]3O[C@@H](n4cnc5c(=O)[nH]c(N)nc54)C[C@@H]3OP(=O)(O)OC[C@H]3O[C@@H](n4cnc5c(=O)[nH]c(N)nc54)C[C@@H]3OP(=O)(O)OC[C@H]3O[C@@H](n4cnc5c(=O)[nH]c(N)nc54)CC3OP(=O)(O)OC[C@H]3O[C@@H](n4cnc5c(N)ncnc54)C[C@@H]3OP(=O)(O)OC[C@H]3O[C@@H](n4cnc5c(=O)[nH]c(N)nc54)C[C@@H]3O[Si](c3ccccc3)(c3ccccc3)C(C)(C)C)[C@@H](CO[Si](c3ccccc3)(c3ccccc3)C(C)(C)C)O2)c(=O)[nH]c1=O (some centres undefined) with MT4 was 6000

Value sought: IC50, system MT4, item `Cc1cn([C@H]2C[C@H](OP(=O)(O)OC[C@H]3O[C@@H](n4cnc5c(=O)[nH]c(N)nc54)C[C@@H]3OP(=O)(O)OC[C@H]3O[C@@H](n4cnc5c(=O)[nH]c(N)nc54)C[C@@H]3OP(=O)(O)OC[C@H]3O[C@@H](n4cnc5c(=O)[nH]c(N)nc54)C[C@@H]3OP(=O)(O)OC[C@H]3O[C@@H](n4cnc5c(N)ncnc54)C[C@@H]3OP(=O)(O)OC[C@H]3O[C@@H](n4cnc5c(=O)[nH]c(N)nc54)C[C@@H]3O)[C@@H](COCc3ccccc3-c3ccccc3)O2)c(=O)[nH]c1=O` . Result: 1200

Response field IC50 (MT4) for item `Cc1cn([C@H]2C[C@H](OP(=O)(O)OC[C@H]3O[C@@H](n4cnc5c(O)nc(N)nc54)C[C@@H]3OP(=O)(O)OC[C@H]3O[C@@H](n4cnc5c(O)nc(N)nc54)C[C@@H]3OP(=O)(O)OC[C@H]3O[C@@H](n4cnc5c(O)nc(N)nc54)C[C@@H]3O)[C@@H](COCc3ccc(OCc4ccccc4)c(OCc4ccccc4)c3)O2)c(=O)[nH]c1=O` : 4600

----------
# Tested on: MT4
# method_summary: In vitro inhibitory activity for cytopathicities induced by HIV-1III B against MT-4 cells.
# Format: functional, cell-based
# condition_notes: Homo sapiens
Below, each of the compounds is paired with its reported pIC50 value.
Answer as the number alone; pIC50 is minus log10 of concentration in mol/L.

Cc1cn([C@H]2C[C@H](OP(=O)(O)OC[C@H]3O[C@@H](n4cnc5c(=O)[nH]c(N)nc54)C[C@@H]3OP(=O)(O)OC[C@H]3O[C@@H](n4cnc5c(=O)[nH]c(N)nc54)C[C@@H]3OP(=O)(O)OC[C@H]3O[C@@H](n4cnc5c(=O)[nH]c(N)nc54)C[C@@H]3OP(=O)(O)OC[C@H]3O[C@@H](n4cnc5c(=O)[nH]c(N)nc54)C[C@@H]3O)[C@@H](COCc3ccc(OCc4ccccc4)c(OCc4ccccc4)c3)O2)c(=O)[nH]c1=O 6.18

Memo: `Cc1cn([C@H]2C[C@H](OP(=O)(O)OC[C@H]3O[C@@H](n4cnc5c(=O)[nH]c(N)nc54)C[C@@H]3OP(=O)(O)OC[C@H]3O[C@@H](n4cnc5c(=O)[nH]c(N)nc54)C[C@@H]3OP(=O)(O)OC[C@H]3O[C@@H](n4cnc5c(=O)[nH]c(N)nc54)C[C@@H]3OP(=O)(O)OC[C@H]3O[C@@H](n4cnc5c(=O)[nH]c(N)nc54)C[C@@H]3OP(=O)(O)OC[C@H]3O[C@@H](n4cnc5c(=O)[nH]c(N)nc54)C[C@@H]3O)[C@@H](COCc3ccc(OCc4ccccc4)c(OCc4ccccc4)c3)O2)c(=O)[nH]c1=O` , reported pIC50: 6.59

----------
Below, each of the molecules is paired with its reported pIC50 value.
# Tested on: MT4
# method_summary: In vitro inhibitory activity for cytopathicities induced by HIV-1III B against MT-4 cells.
# Format: functional, cell-based
# condition_notes: Homo sapiens
pIC50: −log10 of the molar value.

Cc1cn([C@H]2C[C@H](OP(=O)(O)OC[C@H]3O[C@@H](n4cnc5c(=O)[nH]c(N)nc54)C[C@@H]3OP(=O)(O)OC[C@H]3O[C@@H](n4cnc5c(=O)[nH]c(N)nc54)C[C@@H]3OP(=O)(O)OC[C@H]3O[C@@H](n4cnc5c(=O)[nH]c(N)nc54)C[C@@H]3OP(=O)(O)OC[C@H]3O[C@@H](n4cnc5c(N)ncnc54)C[C@@H]3OP(=O)(O)OC[C@H]3O[C@@H](n4cnc5c(=O)[nH]c(N)nc54)C[C@@H]3O)[C@@H](CO)O2)c(=O)[nH]c1=O < 4.40
Cc1cn([C@H]2C[C@H](OP(=O)(O)OC[C@H]3O[C@@H](n4cc(C)c(=O)[nH]c4=O)C[C@@H]3OP(=O)(O)OC[C@H]3O[C@@H](n4cnc5c(O)nc(N)nc54)C[C@@H]3OP(=O)(O)OC[C@H]3O[C@@H](n4cnc5c(O)nc(N)nc54)C[C@@H]3OP(=O)(O)OC[C@H]3O[C@@H](n4cnc5c(O)nc(N)nc54)C[C@@H]3O)[C@@H](COCc3ccc(OCc4ccccc4)c(OCc4ccccc4)c3)O2)c(=O)[nH]c1=O < 4.40

Then this molecule:
pIC50 in this record for `Cc1cn([C@H]2C[C@H](OP(=O)(O)OC[C@H]3O[C@@H](n4cnc5c(O)nc(N)nc54)C[C@@H]3O)[C@@H](COCc3ccc(OCc4ccccc4)c(OCc4ccccc4)c3)O2)c(=O)[nH]c1=O` : < 4.00
